The molecules below each have a reported IC50 tested on UniProt P30291; the values come from various publications.

CN(C)CC(=O)N1CCN(c2ccc(Nc3ncc4c(n3)N(C)CN(c3c(Cl)cccc3Cl)C4=O)cc2)CC1
≤ 10 nM
C[C@@H]1CN(c2ccc(Nc3ncc4c(n3)N(C)CN(c3c(Cl)cccc3Cl)C4=O)cc2OC(F)F)CCN1
10 to 100 nM
C=CCn1c(=O)c2cnc(Nc3ccc4c(c3)CC(N(C)C)C4)nc2n1-c1cccc(C(C)(C)O)n1 (centres unmarked)
< 10 nM
C=CCn1c(=O)c2cnc(Nc3ccc4c(c3)CN(C(=O)C(C)(C)O)CC4(C)C)nc2n1-c1cccc(C(C)(C)O)n1
< 2 nM
CNCc1cc(Nc2ncc3c(n2)N(C)CN(c2c(Cl)cccc2Cl)C3=O)ccc1-c1cccnc1
10 to 100 nM
C[C@@H]1CN(c2ccc(Nc3ncc4c(n3)N(C)CN(c3ccccc3Cl)C4=O)cc2F)CCN1
10 to 100 nM
CN1CCN(c2ccc(Nc3ncc4cnn(-c5ccc6cc[nH]c6c5)c4n3)cc2)CC1
10 to 100 nM
Cc1cc(Nc2ncc3cnn(-c4cccc(C(C)(C)O)n4)c3n2)ccc1N1CCN(C)CC1
10 to 100 nM
O=C1c2cnc(Nc3ccc(N4CCNCC4)cc3)nc2N(c2ccccc2)CN1c1c(Cl)cccc1Cl
≤ 10 nM
COc1cc(Nc2ncc3c(n2)N(C)CN(c2c(Cl)cccc2Cl)C3=O)ccc1N1CCNCC1
≤ 10 nM

Prompt: Recorded IC50 for "CN1CN(c2c(Cl)cccc2Cl)C(=O)c2cnc(Nc3ccc(C4=CCNCC4)c(CO)c3)nc21" , please?
Response: ≤ 10 nM

Prompt: // lookup IC50 for "CN1CCN(c2ccc(Nc3ncc4cnn(-c5cccc(-n6ccccc6=O)n5)c4n3)cc2)CC1"
Response: 10 to 100 nM

Prompt: Name the reported IC50 value associated with the molecule "Cc1cc(Nc2ncc3cnn(-c4cccc(N=S(C)(C)=O)n4)c3n2)ccc1N1CCC(N(C)C)CC1"
Response: 1 to 10 nM

Prompt: // lookup IC50 for "CN1CN(c2c(Cl)cccc2Cl)C(=O)c2cnc(Nc3ccc(N4C[C@@H]5C[C@H]4CN5C)cc3)nc21"
Response: 10 to 100 nM

----------
// compounds with IC50 on Wee1-like protein kinase (Homo sapiens), multi-source literature
Express the result in nM but write the number alone.

// worked examples, IC50 included
CC(C)n1c(=O)c2cnc(Nc3ccc4c(c3)CNCC4)nc2n1-c1ccc(C#N)cc1
5
CC(C)n1c(=O)c2cnc(Nc3ccc4c(c3)CNCC4)nc2n1-c1ccc(F)c(C(C)(C)O)n1
8

As a next step, examine the compound that follows.
Prompt: GET /values?readout=IC50&system=Wee1-like protein kinase (Homo sapiens)&item= "CCc1cc2cnc(Nc3ccc(N4CCN(C)CC4)cc3)nc2n1-c1cccc(N=S(C)(C)=O)n1"
Response: 0.2

----------
// molecules with IC50 on Wee1-like protein kinase (Homo sapiens, UniProt P30291), multi-source literature
Write the answer as a number in nM, unit excluded.

Examples from the recorded data:
CCn1c(=O)c2cnc(Nc3cnc4c(c3)CNCC4)nc2n1-c1cccc(C(C)(C)C)n1
24
CC(C)(O)c1cccc(-n2c3nc(Nc4ccc5c(c4)CNCC5)ncc3c(=O)n2CC2CC2)n1
2
CC(C)(C)c1cc(-n2c3nc(Nc4ccc5c(c4)CCNC5)ncc3c(=O)n2C2CC2)ccn1
30
CC(C)(F)c1cc(-n2c3nc(Nc4ccc5c(c4)CNCC5(C)C)ncc3c(=O)n2C2CC2)ccn1
123
C=CCn1c(=O)c2cnc(Nc3ccc(C4CCC(C(=O)N5CCC5)CC4)cc3)nc2n1-c1cccc(C(C)(C)O)n1 (stereo not drawn)
6.53

Prompt: Please state recorded IC50 (tested on Wee1-like protein kinase (Homo sapiens, UniProt P30291)) of "CCn1c(=O)c2cnc(Nc3ccc4c(c3)CCNC4)nc2n1-c1cccc(C2(C#N)CC2)n1"
Response: 13

Prompt: Given the entry "O=C1c2cnc(Nc3ccc(N4CCNCC4)cc3)nc2OCN1c1ccccc1Cl" , what IC50 was observed with Wee1-like protein kinase (Homo sapiens, UniProt P30291)?
Response: 193

Prompt: Value wanted: IC50 (Wee1-like protein kinase (Homo sapiens, UniProt P30291)) of entry "CC(C)N1CCc2cc(Nc3ncc4c(n3)OCN(c3c(Cl)cccc3Cl)C4=O)ccc2C1"
Response: 206

Prompt: Which IC50 is reported with Wee1-like protein kinase (Homo sapiens, UniProt P30291) for this entry: "Cc1cc(Nc2ncc3c(n2)OCN(c2c(Cl)cccc2Cl)C3=O)ccc1C1CCNCC1" ?
Response: 43.5

Prompt: Recall the recorded IC50 for "CC(C)n1c(=O)c2cnc(Nc3ccc4c(c3)CCNC4)nc2n1-c1cccc(C(=O)N(C)C)c1" with Wee1-like protein kinase (Homo sapiens, UniProt P30291) and state it.
Response: 2

Prompt: # get_value(readout= IC50, system= Wee1-like protein kinase (Homo sapiens, UniProt P30291)) for "NCC(=O)N1CCN(c2ccc(Nc3ncc4c(n3)OCN(c3c(Cl)cccc3Cl)C4=O)cc2)CC1"
Response: 53

Prompt: Entry "Cc1cc2cnc(Nc3ccc(N4CCN(C)CC4)cc3)nc2n1-c1cccc(N=S(C)(C)=O)n1" , system Wee1-like protein kinase (Homo sapiens, UniProt P30291): what IC50 was measured?
Response: 0.51

Prompt: Recall the recorded IC50 for "CCn1c(=O)c2cnc(Nc3ccc4c(c3)CCNC4)nc2n1-c1cccc(OC)n1" with Wee1-like protein kinase (Homo sapiens, UniProt P30291) and state it.
Response: 40

Prompt: Quick check: IC50 on Wee1-like protein kinase (Homo sapiens, UniProt P30291), item "CC(C)(C)c1csc(-n2c3nc(Nc4ccc5c(c4)CNCC5)ncc3c(=O)n2CC(F)(F)F)n1" ?
Response: 3

----------
pIC50: −log10 of the molar value.
Field pIC50: reported value for Wee1-like protein kinase (Homo sapiens, UniProt P30291); entries drawn from several documents.
Label rule met when pIC50 is at or above 8; anything below gets rule not met.

Example cases with answers are listed next.
CC1Oc2nc(Nc3ccc4c(c3)CCNC4(C)C)ncc2C(=O)N1c1c(Cl)cccc1Cl (stereo not shown)
rule not met
C=CCn1c(=O)c2cnc(Nc3ccc4c(c3)CN(C(C)=O)CC43CC3)nc2n1-c1cccc(C(C)(C)O)n1
rule met
CCn1c(=O)c2cnc(Nc3ccc4c(c3)CNCC4(C)C)nc2n1-c1cccc(C2(C#N)CC2)n1
rule met
C[C@@H]1CN(c2ccc(Nc3ncc4c(n3)N(C)CN(c3c(Cl)cccc3Cl)C4=O)cc2)C[C@H](C)N1
rule met

Prompt: Would you say "CCN1CCN(c2ccc(Nc3ncc4c(n3)N(C)CN(c3c(Cl)cccc3Cl)C4=O)cc2CO)CC1" shows pIC50 at minimum 8?
Response: rule met

Prompt: In plain terms: is recorded pIC50 at least 8 for "O=C1c2cnc(Nc3ccc4c(c3)CNCC4)nc2SCN1c1c(Cl)cccc1Cl" ?
Response: rule not met

Prompt: For this compound, is measured pIC50 8 or higher? "COc1cc(Nc2ncc3c(n2)N(C)CN(c2c(Cl)cccc2Cl)C3=O)ccc1C1CCNCC1"
Response: rule met

----------
Please find below IC50 measurements for Wee1-like protein kinase (Homo sapiens, UniProt P30291), combined from several publications.

C=CCn1c(=O)c2cnc(Nc3ccc4c(c3)CN(C(C)C)CC4)nc2n1-c1cccc(C(C)(C)O)n1
< 10 nM
CN1CCN(c2ccc(Nc3ncc4cnn(-c5cccc(C(C)(C)O)c5)c4n3)cc2)CC1
10 to 100 nM

Prompt: For Wee1-like protein kinase (Homo sapiens, UniProt P30291), provide IC50 of CN1CN(c2c(Cl)cccc2Cl)C(=O)c2cnc(Nc3ccc(N4CC5CNCC5C4)cc3)nc21 (stereo not drawn) please.
Response: 10 to 100 nM

----------
Hi, quick share: literature pIC50 data for Wee1-like protein kinase (Homo sapiens, UniProt P30291), several sources combined.
pIC50: −log10 of the molar value.

CN1CCC(c2ccc(Nc3ncc4c(n3)N(C)CN(c3c(Cl)cccc3Cl)C4=O)cc2)CC1
≥ 8.00
CN1CN(c2c(Cl)cccc2Cl)C(=O)c2cnc(Nc3ccc(C4(N)CCC4)cc3)nc21
7.00 to 8.00
CC(=O)N1CCN(c2ccc(Nc3ncc4c(n3)N(C)CN(c3c(Cl)cccc3Cl)C4=O)cc2CN2CCCC2)CC1
≥ 8.00

Prompt: Name the reported pIC50 value associated with the molecule "CNc1ncc2cc(-c3cc(NC(=O)c4cc(S(C)(=O)=O)n(-c5ccc(F)cc5)n4)ccc3Cl)c(=O)n(C)c2n1"
Response: ≤ 5.00

Prompt: Looking for the measured pIC50 of "CNCc1cc(Nc2ncc3c(n2)N(C)CN(c2c(Cl)cccc2Cl)C3=O)ccc1N1CCN(C(C)=O)CC1" , can you help?
Response: ≥ 8.00

Prompt: Which pIC50 value belongs to "C=CCn1c(=O)c2cnc(Nc3ccc4c(c3)CN(S(C)(=O)=O)CC4)nc2n1-c1cccc(C(C)(C)O)n1" ?
Response: > 8.00

Prompt: Please report the recorded pIC50 for CC1N(C)c2nc(Nc3ccc(N4CCNCC4)cc3)ncc2C(=O)N1c1c(Cl)cccc1Cl (centres unmarked) .
Response: 7.00 to 8.00

Prompt: pIC50 lookup needed for "COc1ccc(CN2CN(c3c(Cl)cccc3Cl)C(=O)c3cnc(Nc4ccc(N5CCNCC5)cc4)nc32)cc1" , thanks.
Response: ≤ 7.00

Prompt: Quick one: pIC50 for "C[C@H]1CN(c2ccc(Nc3ncc4c(n3)OCN(c3c(Cl)cccc3Cl)C4=O)cc2Cl)CCN1" ?
Response: 6.73

Prompt: Could you tell me which pIC50 is on file for "CCCc1cc2cnc(Nc3ccc(N4CCN(C)CC4)cc3)nc2n1-c1cccc(C(C)(C)O)n1" ?
Response: 9.06

Prompt: Using the record for "CC(C)c1cc2cnc(Nc3ccc(N4CCN(C)CC4)cc3)nc2n1-c1cccc(N=S(C)(C)=O)n1" , report its pIC50.
Response: 9.02
